For each of the compounds below, state its Ratio.
# target entity: Histamine H2 receptor (Cavia porcellus) (UniProt P47747)
# Sequence (P47747 whole entry): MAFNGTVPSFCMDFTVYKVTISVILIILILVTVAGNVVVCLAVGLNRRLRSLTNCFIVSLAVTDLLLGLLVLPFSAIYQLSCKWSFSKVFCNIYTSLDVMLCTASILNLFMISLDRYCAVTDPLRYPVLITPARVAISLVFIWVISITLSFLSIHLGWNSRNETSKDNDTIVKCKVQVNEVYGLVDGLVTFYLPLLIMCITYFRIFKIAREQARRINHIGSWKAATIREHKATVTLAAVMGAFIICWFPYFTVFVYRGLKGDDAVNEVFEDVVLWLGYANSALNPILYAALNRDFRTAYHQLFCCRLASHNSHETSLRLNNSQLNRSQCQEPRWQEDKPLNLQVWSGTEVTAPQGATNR
# procedure summary: Antagonist activity at histamine H2 receptor in Hartley guinea pig atrium assessed as ratio of histamine concentration required in control to that required in presence of compound to increase atrium rate by 50 beats/min at 10 ug/mL
# conditions: Cardiac atrium
Numbers only.

Please supply Ratio for each of the following items, keeping them in order.
1. Cc1cc(C)c2ccc(=O)n(CCN(C)C)c2n1
2. Cc1cc(C)c2c(n1)N(CCN(C)C)C(=O)CC2
3. CN(C)CCn1c(=O)ccc2cccnc21
4. CC(C)Cc1ccc2ccc(=O)n(CCN(C)C)c2n1
5. Cc1cc(C)c2ccc(=O)n(CCN(C(C)C)C(C)C)c2n1
6. CNC(=S)NCCSCc1[nH]cnc1C [METIAMIDE]

1: 0.18; 2: 0.013; 3: 0.54; 4: 0.21; 5: 0.011; 6: 0.003

###

# target entity: Histamine H2 receptor (Rattus norvegicus, UniProt P25102)
# Sequence (P25102 whole entry): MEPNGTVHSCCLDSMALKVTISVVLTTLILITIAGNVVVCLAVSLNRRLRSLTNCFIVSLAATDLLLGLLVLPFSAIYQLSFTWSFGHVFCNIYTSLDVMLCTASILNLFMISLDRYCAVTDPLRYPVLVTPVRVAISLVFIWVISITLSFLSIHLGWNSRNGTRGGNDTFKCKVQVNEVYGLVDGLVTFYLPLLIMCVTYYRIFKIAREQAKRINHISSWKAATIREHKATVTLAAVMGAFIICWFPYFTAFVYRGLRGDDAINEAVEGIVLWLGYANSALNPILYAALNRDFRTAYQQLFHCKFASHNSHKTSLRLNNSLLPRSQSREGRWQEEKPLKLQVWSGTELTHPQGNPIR
# procedure summary: Antagonist activity at histamine H2 receptor in Charles River rat assessed as inhibition of histamine-mediated electrically stimulated uterine contraction
Could you please mark 1.0 for values of EC50 below 9 µM and 0.0 for values at or above it?

compound=COc1cc(C)c2ccc(=O)n(CCN(C)C)c2n1 target_entity="Histamine H2 receptor (Rattus norvegicus, UniProt P25102)" group=0.0
compound=Cc1cc(C)c2ccc(=O)n(CCN(C(C)C)C(C)C)c2n1 target_entity="Histamine H2 receptor (Rattus norvegicus, UniProt P25102)" group=1.0
compound=CCc1cc(CC)c2ccc(=O)n(CCN(C)C)c2n1 target_entity="Histamine H2 receptor (Rattus norvegicus, UniProt P25102)" group=0.0

Confirm or reject: EC50 of "CNCCn1c(=O)ccc2c(C)cc(C)nc21" lies strictly below 9 µM
0.0

Confirm or reject: EC50 of "CC(C)N(CCn1c(=O)ccc2cccnc21)C(C)C" lies strictly below 9 µM
0.0

Confirm or reject: EC50 of "Cc1cc(C(F)(F)F)nc2c1ccc(=O)n2CCN(C)C" lies strictly below 9 µM
1.0

Confirm or reject: EC50 of "CCCCN(CCCC)CCn1c(=O)ccc2c(C)cc(C)nc21" lies strictly below 9 µM
1.0

Confirm or reject: EC50 of "CCc1ccc2ccc(=O)n(CCN(C)C)c2n1" lies strictly below 9 µM
1.0

Confirm or reject: EC50 of "Cc1cc(C)c2ccc(=O)n(CCN3CCCCC3)c2n1" lies strictly below 9 µM
0.0

Confirm or reject: EC50 of "Cc1cc(C)c2ccc(=S)n(CCN(C)C)c2n1" lies strictly below 9 µM
0.0

Confirm or reject: EC50 of "Cc1nc2c(ccc(=O)n2CCN(C)C)c(C)c1C" lies strictly below 9 µM
0.0

Confirm or reject: EC50 of "Cc1cc(C)c2c(n1)N(CCN(C)C)C(=O)CC2" lies strictly below 9 µM
0.0

Confirm or reject: EC50 of "Cc1cc(C)c2c(n1)N(CCN(C)C)CCC2" lies strictly below 9 µM
1.0

Confirm or reject: EC50 of "CC(C)c1ccc2ccc(=O)n(CCN(C)C)c2n1" lies strictly below 9 µM
1.0

Confirm or reject: EC50 of "Cc1cc(C)c2ccc(=O)n(CC(C)(C)N(C)C)c2n1" lies strictly below 9 µM
0.0

Confirm or reject: EC50 of "CC(C)Cc1ccc2ccc(=O)n(CCN(C)C)c2n1" lies strictly below 9 µM
1.0
